target: T1, purified recombinant human VEGF165 (human, UniProt P15692 27-191, glycosylated); test: SPR (BIAcore), purified scFv over VEGF immobilized on CM5 chip, 25 C
T1 construct: mature; Bought from Calbiochem; also called VEGF protein (Calbiochem); homodimeric VEGF protein
T1 sequence (P15692 other isoform, or with tags, fused parts or gaps limits assumed): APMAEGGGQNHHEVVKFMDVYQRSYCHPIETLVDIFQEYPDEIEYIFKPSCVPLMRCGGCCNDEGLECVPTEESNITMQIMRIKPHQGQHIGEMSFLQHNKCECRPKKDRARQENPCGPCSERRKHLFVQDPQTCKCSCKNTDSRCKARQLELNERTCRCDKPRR
quantity-name: hAB1 Kd/Variant Kd
Form: value (number only, do not type unit).

[in] Identify measured hAB1 Kd/Variant Kd corresponding to hAB4 (scFv, Single chain format; not shown: HA-His6 tag at C-terminus) scFv: QVQLVQSGGGVVQPGGSLRLTCAASGYTFTNYGMNWVRQAPGKGLEWVGWINTYTGEPTYAADFKRRFTISLDTSKSQAYLQMNSLRAEDTAVYYCAKYPHYYGSSHWYFDVWGQGTLVTVSSGGGGSGGGGSGGGGSDIQMTQSPSSLSASVGDRVTITCSASQDISNYLNWYQQKPGKAPKVLIYFTSSLHSGVPSRFSGSGSGTDFTLTISSLQPEDFATYYCQQYSTVPWTFGQGTKVEIK
[out] 0.5
